assay: Selectivity index, ratio of cytotoxic IC50 for human MCF10A cells to antiproliferative IC50 for human MCF7 cells; assay type: toxicity; details: MCF10A cells and MCF7 cells, read-out: Ratio IC50
Recorded measurements of selectivity ratio, one per entry
Number only, no unit.

O=C(Cn1cc(COc2ccccc2OCc2cn(CC(=O)Nc3ccc(Cl)cc3)nn2)nn1)Nc1ccc(Cl)cc1 5

get_value(item= COc1ccc(NC(=O)Cn2cc(COc3ccccc3OCc3cn(CC(=O)Nc4ccc(OC)cc4)nn3)nn2)cc1 , readout=selectivity ratio) returns 8

----------
Reported inhibition values for a set of molecules
molecular target: Epidermal growth factor receptor (Homo sapiens); details: MCF7, at 10 µM
Description: Inhibition of EGFR in human MCF7 cells assessed as reduction in EGFR phosphorylation at 10 uM incubated for 48 hrs by Western blot analysis
Quick note: give the figure in %, leave out the unit.

// solved cases for inhibition follow
O=C(Cn1cc(COc2ccccc2OCc2cn(CC(=O)Nc3ccc(Cl)cc3)nn2)nn1)Nc1ccc(Cl)cc1 72.7
O=C(Cn1cc(COc2cccc(OCc3cn(CC(=O)Nc4ccc(Cl)cc4)nn3)c2)nn1)Nc1ccc(Cl)cc1 32.6
Cc1ccc(NC(=O)Cn2cc(COc3cccc(OCc4cn(CC(=O)Nc5ccc(C)cc5)nn4)c3)nn2)cc1 76.9
Cc1ccc(NC(=O)Cn2cc(COc3ccccc3OCc3cn(CC(=O)Nc4ccc(C)cc4)nn3)nn2)cc1 28.2

Let me check: COc1ccc(NC(=O)Cn2cc(COc3ccccc3OCc3cn(CC(=O)Nc4ccc(OC)cc4)nn3)nn2)cc1 , system Epidermal growth factor receptor (Homo sapiens), measured inhibition is 88.3
